biological target: α5β1 integrin (on K562 cells) (UniProt P08648 42-1049; P05556 21-798, limits assumed); assay: cell-based or functional assay
Sequence (P08648 42-1049 limits assumed, chain 1 of 2): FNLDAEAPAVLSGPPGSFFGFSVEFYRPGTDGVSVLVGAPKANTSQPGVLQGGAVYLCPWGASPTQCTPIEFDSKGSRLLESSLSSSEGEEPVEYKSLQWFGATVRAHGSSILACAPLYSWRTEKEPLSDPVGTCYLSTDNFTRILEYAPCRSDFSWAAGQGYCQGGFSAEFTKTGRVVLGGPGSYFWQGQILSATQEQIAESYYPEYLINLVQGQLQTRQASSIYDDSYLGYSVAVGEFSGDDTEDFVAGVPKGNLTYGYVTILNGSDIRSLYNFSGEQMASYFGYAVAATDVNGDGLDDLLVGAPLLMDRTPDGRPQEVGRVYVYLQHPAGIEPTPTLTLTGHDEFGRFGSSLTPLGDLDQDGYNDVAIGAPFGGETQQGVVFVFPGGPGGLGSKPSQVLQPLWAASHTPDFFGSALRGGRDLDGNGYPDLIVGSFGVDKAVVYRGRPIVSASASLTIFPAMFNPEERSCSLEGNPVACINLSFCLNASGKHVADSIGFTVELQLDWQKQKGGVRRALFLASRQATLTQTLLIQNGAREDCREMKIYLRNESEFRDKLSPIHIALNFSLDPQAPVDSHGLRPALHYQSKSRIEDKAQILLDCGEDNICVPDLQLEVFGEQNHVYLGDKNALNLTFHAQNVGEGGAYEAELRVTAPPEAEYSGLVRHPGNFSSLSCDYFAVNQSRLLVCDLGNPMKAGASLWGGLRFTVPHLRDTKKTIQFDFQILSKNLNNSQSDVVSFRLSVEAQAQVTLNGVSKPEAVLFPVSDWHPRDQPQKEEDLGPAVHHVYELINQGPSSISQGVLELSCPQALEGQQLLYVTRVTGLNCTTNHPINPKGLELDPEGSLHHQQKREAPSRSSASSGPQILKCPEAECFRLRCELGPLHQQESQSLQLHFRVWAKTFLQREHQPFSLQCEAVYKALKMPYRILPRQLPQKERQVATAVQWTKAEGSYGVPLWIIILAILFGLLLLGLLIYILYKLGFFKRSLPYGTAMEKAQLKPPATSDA
Sequence (P05556 21-798 limits assumed, chain 2 of 2): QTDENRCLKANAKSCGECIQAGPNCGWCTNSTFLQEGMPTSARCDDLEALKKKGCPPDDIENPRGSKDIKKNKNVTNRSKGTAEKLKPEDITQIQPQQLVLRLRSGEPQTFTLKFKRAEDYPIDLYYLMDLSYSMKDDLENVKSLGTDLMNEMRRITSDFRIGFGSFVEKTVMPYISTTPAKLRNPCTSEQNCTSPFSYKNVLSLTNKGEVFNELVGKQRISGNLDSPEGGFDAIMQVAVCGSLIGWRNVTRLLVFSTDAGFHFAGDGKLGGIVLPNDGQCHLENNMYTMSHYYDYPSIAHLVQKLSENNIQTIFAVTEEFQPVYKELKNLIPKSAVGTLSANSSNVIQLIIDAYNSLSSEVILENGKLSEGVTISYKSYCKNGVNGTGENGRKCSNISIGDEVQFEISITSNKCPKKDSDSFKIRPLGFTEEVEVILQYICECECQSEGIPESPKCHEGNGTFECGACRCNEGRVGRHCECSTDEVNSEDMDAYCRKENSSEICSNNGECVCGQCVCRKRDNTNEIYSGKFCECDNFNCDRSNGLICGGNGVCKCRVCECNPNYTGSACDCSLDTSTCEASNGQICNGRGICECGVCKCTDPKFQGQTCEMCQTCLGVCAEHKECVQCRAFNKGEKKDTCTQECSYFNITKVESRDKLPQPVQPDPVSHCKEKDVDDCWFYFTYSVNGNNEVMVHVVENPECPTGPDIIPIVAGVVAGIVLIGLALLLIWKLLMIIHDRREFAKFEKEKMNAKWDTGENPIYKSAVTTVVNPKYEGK
Property Label: % Inhibition (K562 adhesion to fibronectin) (%)

{"Binder": "sc 264 RAD (antibody, V domains shown, Variable domains only) VH: QVQLQESGPGLVKPSQTLSLTCTVSGGSISSGGYYWSWIRQHPGKGLEWIGYIYYSGRTYNNPSLKSRVTISVDTSKNQFSLKLSSVTAADTAVYYCARVATGRADYHFYAMDVWGQGTTVTVSS VL: SYELTQPSSVSVSPGQTARITCSGDVLAKKSARWFHQKPGQAPVLVIYKDSERPSGIPERFSGSSSGTTVTLTISGAQVEDEAAYYCYSAADNNLVFGGGTKLTVL", "Reported": 6}
{"Binder": "sc 188 SDM (antibody, V domains shown, Variable domains only) VH: QVQLQESGPGLVKPSQTLSLTCTVSGGSISSGVYYWTWIRQHPGNGLEWIGYIYYSGSTSYNPSLKSRVTISVDTSKKQFSLKLTSVTAADTAVYYCAREGPLRGDYYYGLDVWGQGTTVTVSS VL: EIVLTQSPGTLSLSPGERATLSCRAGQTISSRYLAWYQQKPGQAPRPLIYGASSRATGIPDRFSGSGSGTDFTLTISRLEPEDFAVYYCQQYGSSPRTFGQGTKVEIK", "Reported": -8}
{"Binder": "sc 264 (antibody, V domains shown, RGD in heavy chain CDR3) VH: QVQLQESGPGLVKPSQTLSLTCTVSGGSISSGGYYWSWIRQHPGKGLEWIGYIYYSGRTYNNPSLKSRVTISVDTSKNQFSLKLSSVTAADTAVYYCARVATGRGDYHFYAMDVWGQGTTVTVSS VL: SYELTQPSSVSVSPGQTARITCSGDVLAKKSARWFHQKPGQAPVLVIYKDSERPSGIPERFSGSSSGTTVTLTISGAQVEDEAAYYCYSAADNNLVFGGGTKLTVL", "Reported": 3}
{"Binder": "sc 188 (antibody, V domains shown) VH: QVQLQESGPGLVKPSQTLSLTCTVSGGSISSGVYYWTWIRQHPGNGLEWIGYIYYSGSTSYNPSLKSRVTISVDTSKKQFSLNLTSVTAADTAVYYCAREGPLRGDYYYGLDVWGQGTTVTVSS VL: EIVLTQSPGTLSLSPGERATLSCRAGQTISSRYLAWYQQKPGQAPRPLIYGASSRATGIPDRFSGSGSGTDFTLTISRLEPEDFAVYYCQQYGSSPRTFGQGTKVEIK", "Reported": -5}
